These measurements were taken from patent US7910739B2.

// values below are reported IC50
Molecular target: BuChE from human serum (Homo sapiens)
Construct: 0.01 unit BuChE from human serum; from tissue; host or cells: human serum
Experiment: Butyrylcholinesterase (BuChE) inhibition, Ellman colorimetric method
Assay type: biochemical
Settings: BuChE from human serum, 30° C., pH 8; read-out: IC50 BuChE
Protocol: Butyrylcholinesterase (BuChE) Inhibition (from Human Serum) BuChE inhibitory activity was evaluated at 30° C. by the colorimetric method reported by Ellman. […] Enzyme activity was determined by measuring the absorbance at 405 nm during 5 minutes with a microplate reader Digiscan 340T. […] The reaction rate was calculated with, at least, triplicate measurements. […]
measured-metric: IC50

compound="CN(CCCNC(=O)CCc1c[nH]c2ccccc12)CCCNc1c2c(nc3cc(Cl)ccc13)CCCC2 [Compound 9]" measured_metric=IC50 result="7.57 nM"
compound="O=C(CCc1c[nH]c2ccccc12)NCCCCCCCCNc1c2c(nc3cc(Cl)ccc13)CCCC2 [Compound 5]" measured_metric=IC50 result="5.7 nM"
compound="O=C(Cc1c[nH]c2ccc(Br)cc12)NCCCCCCCNc1c2c(nc3cc(Cl)ccc13)CCCC2 [Compound 18]" measured_metric=IC50 result="1.7 nM"
compound="O=C(CCc1c[nH]c2ccccc12)NCCCCCCCCCNc1c2c(nc3cc(Cl)ccc13)CCCC2 [Compound 6]" measured_metric=IC50 result="9.6 nM"

---

Target: BuChE from human serum (Homo sapiens, UniProt P06276)
Construct: 0.01 unit BuChE from human serum; from tissue; host or cells: human serum
Sequence (P06276 29-602): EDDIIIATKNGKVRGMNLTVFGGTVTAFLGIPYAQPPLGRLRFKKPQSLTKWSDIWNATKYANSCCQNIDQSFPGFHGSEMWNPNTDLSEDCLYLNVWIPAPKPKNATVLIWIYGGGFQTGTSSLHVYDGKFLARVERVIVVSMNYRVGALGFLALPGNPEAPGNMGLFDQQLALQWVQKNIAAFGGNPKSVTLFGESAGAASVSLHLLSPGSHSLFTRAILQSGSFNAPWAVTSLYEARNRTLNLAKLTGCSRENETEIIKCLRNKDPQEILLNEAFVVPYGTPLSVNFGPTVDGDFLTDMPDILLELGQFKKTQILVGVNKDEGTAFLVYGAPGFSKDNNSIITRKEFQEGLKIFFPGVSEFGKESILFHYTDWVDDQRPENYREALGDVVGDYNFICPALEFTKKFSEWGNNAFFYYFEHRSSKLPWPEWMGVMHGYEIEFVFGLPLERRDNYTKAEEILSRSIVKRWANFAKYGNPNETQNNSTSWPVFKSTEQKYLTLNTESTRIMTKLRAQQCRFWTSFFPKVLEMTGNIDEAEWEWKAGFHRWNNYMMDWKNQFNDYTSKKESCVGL
Test: Butyrylcholinesterase (BuChE) inhibition, Ellman colorimetric method
Type: biochemical
pIC50: −log10 of the molar value.
measured-metric: pIC50

compound="O=C(NCCCCCCNc1c2c(nc3cc(Cl)ccc13)CCCC2)OCCc1c[nH]c2ccccc12 [Compound 24]" measured_metric=pIC50 numeric_result=8.49

---

Target: AChE (from bovine erythrocytes) (Bos taurus)
Construct: 0.02 unit AChE (Sigma Chemical Co. from bovine erythrocytes); purchased Sigma Chemical Co; host or cells: bovine erythrocytes (natural source)
Sequence (P23795 other isoform, or with tags, fused parts or gaps): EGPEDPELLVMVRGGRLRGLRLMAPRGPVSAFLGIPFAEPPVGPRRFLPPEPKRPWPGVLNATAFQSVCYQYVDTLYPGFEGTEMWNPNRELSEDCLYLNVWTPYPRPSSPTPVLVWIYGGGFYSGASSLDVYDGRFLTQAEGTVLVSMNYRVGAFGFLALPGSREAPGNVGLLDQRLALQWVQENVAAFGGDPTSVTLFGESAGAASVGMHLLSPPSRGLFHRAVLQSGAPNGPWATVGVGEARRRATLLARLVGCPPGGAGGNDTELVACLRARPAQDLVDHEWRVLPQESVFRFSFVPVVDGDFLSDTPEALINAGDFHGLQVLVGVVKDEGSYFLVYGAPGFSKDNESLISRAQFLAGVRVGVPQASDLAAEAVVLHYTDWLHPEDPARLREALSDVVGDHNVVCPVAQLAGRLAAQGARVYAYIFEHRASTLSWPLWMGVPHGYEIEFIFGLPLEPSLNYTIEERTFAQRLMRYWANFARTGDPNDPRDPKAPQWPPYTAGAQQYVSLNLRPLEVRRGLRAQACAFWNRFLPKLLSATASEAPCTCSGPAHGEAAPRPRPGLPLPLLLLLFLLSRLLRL
Experiment: biochemical
Format: biochemical
Description: Acetylcholinesterase (AChE) Inhibition (from Bovine Erythrocytes) AChE inhibitory activity was evaluated at 30° C. by the colorimetric method reported by Ellman [Ellman, G. L.; Courtney, K. D.; Andres, B.; Featherstone, R. M. Biochem. Pharmacol. 1961, 7, 88-95]. […]
measured-metric: IC50 (nM)

smiles_notation=O=C(Cc1c[nH]c2ccc(Br)cc12)NCCCCCCCNc1c2c(nc3cc(Cl)ccc13)CCCC2 measured_metric=IC50 measure_unit=nM numeric_result=0.63

---

Tested on: human neuroblastoma cell line SH-SY5Y
Test: Toxicity measurement (LDH release)
Type: cell-based
Settings: 24 hours exposure
measured-metric: Toxicity

smiles_notation=O=C(NCCCCCCNc1c2c(nc3cc(Cl)ccc13)CCCC2)OCCc1c[nH]c2ccccc12 result=">10 µM"
smiles_notation=O=C(CCc1c[nH]c2ccccc12)NCCCCCCNc1c2c(nc3cc(Cl)ccc13)CCCC2 result="100 µM"
smiles_notation=CN(CCCNC(=O)CCc1c[nH]c2ccccc12)CCCNc1c2c(nc3ccccc13)CCCC2 result=">100 µM"
smiles_notation=O=C(NCCCCCCNc1c2c(nc3cc(Cl)ccc13)CCCC2)c1c[nH]c2ccccc12 result=">10 µM"
smiles_notation=O=C(Cc1c[nH]c2ccc(Br)cc12)NCCCCCCCNc1c2c(nc3cc(Cl)ccc13)CCCC2 result=">10 µM"
smiles_notation=O=C(CCc1c[nH]c2ccccc12)NCCCCCCCCCNc1c2c(nc3cc(Cl)ccc13)CCCC2 result=">100 µM"
smiles_notation=O=C(NCCCCCNc1c2c(nc3cc(Cl)ccc13)CCCC2)c1c[nH]c2ccccc12 result=">10 µM"
smiles_notation=O=C(CCc1c[nH]c2ccccc12)NCCCCCCCCCCNc1c2c(nc3cc(Cl)ccc13)CCCC2 result=">100 µM"

---

Propidium competition overview
Biological target: AChE peripheral site (Bos taurus, UniProt P23795)
Experiment: Propidium competition (fluorescence)
Format: binding
Settings: 10 μM AchE, 20 μM propidium iodide, pH 8.0
measured-metric: Propidium competition (µM)

smiles_notation=CN(CCCNC(=O)CCc1c[nH]c2ccccc12)CCCNc1c2c(nc3ccccc13)CCCC2 qualifier== numeric_result=1000
smiles_notation=O=C(NCCCCCCNc1c2c(nc3cc(Cl)ccc13)CCCC2)c1c[nH]c2ccccc12 qualifier== numeric_result=100
smiles_notation=O=C(Cc1c[nH]c2ccc(Br)cc12)NCCCCCCCNc1c2c(nc3cc(Cl)ccc13)CCCC2 qualifier== numeric_result=100
smiles_notation=CN(CCCNC(=O)CCc1c[nH]c2ccccc12)CCCNc1c2c(nc3cc(Cl)ccc13)CCCC2 qualifier== numeric_result=10
smiles_notation=O=C(NCCCCCCCNc1c2c(nc3cc(Cl)ccc13)CCCC2)c1n[nH]c2ccccc12 qualifier== numeric_result=100
smiles_notation=O=C(CCc1c[nH]c2ccccc12)NCCCCCCCCCNc1c2c(nc3cc(Cl)ccc13)CCCC2 qualifier=> numeric_result=100
smiles_notation=O=C(CCc1c[nH]c2ccccc12)NCCCCCCCCCCNc1c2c(nc3cc(Cl)ccc13)CCCC2 qualifier== numeric_result=10
smiles_notation=O=C(CCCc1c[nH]c2ccccc12)NCCCCCCNc1c2c(nc3cc(Cl)ccc13)CCCC2 qualifier== numeric_result=100
smiles_notation=O=C(NCCCCCCNc1c2c(nc3cc(Cl)ccc13)CCCC2)OCCc1c[nH]c2ccccc12 qualifier== numeric_result=100
smiles_notation=O=C(CCc1c[nH]c2ccccc12)NCCCCCNc1c2c(nc3ccccc13)CCCC2 qualifier== numeric_result=10
smiles_notation=O=C(CCc1c[nH]c2ccccc12)NCCCCCCNc1c2c(nc3cc(Cl)ccc13)CCCC2 qualifier== numeric_result=1000
smiles_notation=O=C(CCc1c[nH]c2ccccc12)NCCCCCCCNc1c2c(nc3cc(Cl)ccc13)CCCC2 qualifier== numeric_result=10

---

Target: AChE peripheral site (Bos taurus, UniProt P23795)
Assay: Propidium competition (fluorescence)
Assay type: binding
Conditions: 10 μM AchE, 20 μM propidium iodide, pH 8.0
measured-metric: Propidium competition (µM)

compound="O=C(NCCCCCNc1c2c(nc3cc(Cl)ccc13)CCCC2)c1c[nH]c2ccccc12 [Compound 10]" measured_metric="Propidium competition" numeric_result=100
compound="O=C(NCCCCCCCNc1c2c(nc3cc(Cl)ccc13)CCCC2)c1c[nH]c2ccccc12 [Compound 12]" measured_metric="Propidium competition" numeric_result=100
compound="O=C(NCCCCCCCCNc1c2c(nc3cc(Cl)ccc13)CCCC2)c1c[nH]c2ccccc12 [Compound 13]" measured_metric="Propidium competition" numeric_result=10
compound="O=C(CCc1c[nH]c2ccccc12)NCCCCCCCCNc1c2c(nc3cc(Cl)ccc13)CCCC2 [Compound 5]" measured_metric="Propidium competition" numeric_result=10

---

We begin with a simple list: items and their reported Toxicity.
Test system: human neuroblastoma cell line SH-SY5Y
Assay: Toxicity measurement (LDH release)
Assay type: cell-based
Conditions: 24 hours exposure
measured-metric: Toxicity

smiles_notation=O=C(NCCCCCCCNc1c2c(nc3cc(Cl)ccc13)CCCC2)c1c[nH]c2ccccc12 measured_metric=Toxicity result=">10 µM"
smiles_notation=O=C(CCc1c[nH]c2ccccc12)NCCCCCCCNc1c2c(nc3cc(Cl)ccc13)CCCC2 measured_metric=Toxicity result="10 µM"
smiles_notation=O=C(CCc1c[nH]c2ccccc12)NCCCCCCCCNc1c2c(nc3cc(Cl)ccc13)CCCC2 measured_metric=Toxicity result="10 µM"
smiles_notation=CN(CCCNC(=O)CCc1c[nH]c2ccccc12)CCCNc1c2c(nc3cc(Cl)ccc13)CCCC2 measured_metric=Toxicity result=">100 µM"
smiles_notation=O=C(CCc1c[nH]c2ccccc12)NCCCCCNc1c2c(nc3ccccc13)CCCC2 measured_metric=Toxicity result=">100 µM"
smiles_notation=O=C(NCCCCCCCCNc1c2c(nc3cc(Cl)ccc13)CCCC2)c1c[nH]c2ccccc12 measured_metric=Toxicity result=">10 µM"
smiles_notation=O=C(NCCCCCCCNc1c2c(nc3cc(Cl)ccc13)CCCC2)c1n[nH]c2ccccc12 measured_metric=Toxicity result=">10 µM"
smiles_notation=O=C(CCCc1c[nH]c2ccccc12)NCCCCCCNc1c2c(nc3cc(Cl)ccc13)CCCC2 measured_metric=Toxicity result=">10 µM"

---

Molecular target: BuChE from human serum (Homo sapiens)
Construct: 0.01 unit BuChE from human serum; from tissue; host or cells: human serum
Test: Butyrylcholinesterase (BuChE) inhibition, Ellman colorimetric method
Assay type: biochemical
Conditions: BuChE from human serum, 30° C., pH 8; read-out: IC50 BuChE
measured-metric: IC50 (nM)

smiles_notation=O=C(CCCc1c[nH]c2ccccc12)NCCCCCCNc1c2c(nc3cc(Cl)ccc13)CCCC2 target="BuChE from human serum (Homo sapiens)" numeric_result=5.6
smiles_notation=CN(CCCNC(=O)CCc1c[nH]c2ccccc12)CCCNc1c2c(nc3ccccc13)CCCC2 target="BuChE from human serum (Homo sapiens)" numeric_result=0.03
smiles_notation=O=C(NCCCCCCCCNc1c2c(nc3cc(Cl)ccc13)CCCC2)c1c[nH]c2ccccc12 target="BuChE from human serum (Homo sapiens)" numeric_result=22.4
smiles_notation=O=C(CCc1c[nH]c2ccccc12)NCCCCCCNc1c2c(nc3cc(Cl)ccc13)CCCC2 target="BuChE from human serum (Homo sapiens)" numeric_result=2.9
smiles_notation=O=C(NCCCCCNc1c2c(nc3cc(Cl)ccc13)CCCC2)c1c[nH]c2ccccc12 target="BuChE from human serum (Homo sapiens)" numeric_result=9.5
smiles_notation=O=C(CCc1c[nH]c2ccccc12)NCCCCCNc1c2c(nc3ccccc13)CCCC2 target="BuChE from human serum (Homo sapiens)" numeric_result=1
smiles_notation=O=C(CCc1c[nH]c2ccccc12)NCCCCCCCCCCNc1c2c(nc3cc(Cl)ccc13)CCCC2 target="BuChE from human serum (Homo sapiens)" numeric_result=54
